- target_system: T1, YU-2 gp140 (HIV-1 YU2, UniProt P35961 32-670)
- T1 construct: domain: gp140; also called YU2 gp140 trimer
- experiment: SPR, gp140 on chip, IgG injected
assay_metric: kon
The answer should read as a number with its unit following.

>>> result("1B2530 (antibody, V domains shown, also called LSSB2530HC; LSSB2530LC) VH: QVRLEQSGAAMRKPGASVTLSCQASGYNFVKYIIHWVRQKPGLGFEWVGMIDPYRGRPWSAHKFQGRLSLSRDTSMEILYMTLTSLKSDDTATYFCARAEAASDSHSRPIMFDHWGQGSRVTVSS VL: QSALTQPPSASGAPGQRVTISCSGGPSNVGGNYVYWYRQFPGTAPTLLILRDDQRPSGVPDRFSASKSGNSASLAISGLRPDDEGFYFCATYDSDGSIRLFGGGTALTVLS")
"47400 M⁻¹ s⁻¹"
>>> result("3BNC55 (antibody, V domains shown, also called 3BNC55HC; 3BNC55KC) VH: QVQLVQSGTAVKRPGASVRVSCQASGYTFTDYFIYWWRQAPGQGLEWLGWINPLTSQPSYPSRFQGRLTLTRDTFDEMLYMDLRGLRSDDTGIYFCARRHSDYCDFDIWGSGTQIIVSS VL: DIQMTQSPSSLSASVGDKVTITCQTSAGYLNWYQQRRGRAPKLLMYDGSRLVTGVPSRFSGRRWGTQYNLTIGSLQPEDIATYYCQVYEFFGPGTRLDLKS")
"13100 M⁻¹ s⁻¹"

Shifting focus to the binder that follows.
Give the reported kon for this binder. 12A12 (antibody, V domains shown, also called 12A12HC; 12a12kc) VH: SQQLVQSGTQVKKPGASVRISCQASGYSFTDYVLHWWRQAPGQGLEWMGWIKPVYGARNYARRFQGRINFDRDIYREIAFMDLSGLRSDDTALYFCARDGSGDDTSWHLDPWGQGTLVIVSA VL: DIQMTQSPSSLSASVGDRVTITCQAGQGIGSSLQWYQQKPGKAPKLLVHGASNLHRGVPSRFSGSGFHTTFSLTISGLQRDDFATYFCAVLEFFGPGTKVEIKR
45900 M⁻¹ s⁻¹
